# Tested on: CAKI-1 renal
# ASSAY_INFO: NCI-60 one-dose screen, 48 h
# SETTINGS: 10 µM unless noted
About 83,000 compounds went through this panel and 20% of them were active in at least one assay; those are over-represented in the sample as a whole. Active and inactive are the calls of the source. Rule for the calls: active = growth percent below 10; inactive = the rest.
Possible outcomes: 1 = active, 0 = inactive

>>> answer_label("O=C1NC(=S)S/C1=C\\c1cccc([N+](=O)[O-])c1")
0
>>> answer_label("Cc1nc2cc(Nc3nc(Nc4ccc(F)cc4)nc(-c4cccs4)n3)ccc2n1Cc1ccccc1")
0
>>> answer_label("O=C1N/C(=C\\c2ccccc2)c2ncccc21")
0
>>> answer_label("Cc1nc2nc(C(F)(F)F)[nH]c2nc1C")
0
>>> answer_label("COC(=O)c1c2c(c(C)[n+]([O-])c1C)C(=O)C=C(NCc1ccc(F)c(Cl)c1)C2=O")
1
>>> answer_label("Cc1nc2cc(Nc3nc(N4CCOCC4)nc(N4CCN(C)CC4)n3)ccc2n1Cc1ccccc1")
0
>>> answer_label("O=c1[nH]c(=S)[nH]c(=O)n1Cc1cccc2ccccc12")
0
>>> answer_label("Oc1cccc(Nc2nc(-c3ccccn3)cs2)c1")
0
>>> answer_label("O=c1c2cc(F)ccc2oc2c(NCCNCCO)nc3ccccc3c12")
0
>>> answer_label("FC(F)(F)Oc1ccc2c(c1)C[C@H]1C[C@@H](c3ccoc3)N2O1")
0
>>> answer_label("COc1ccc(-c2nc3sc(C)cn3c2/C=C/C(=O)c2cc(OC)c(OC)c(OC)c2)cc1")
0
>>> answer_label("CCN1CCN(c2ccc(Nc3ncc4ccc5ncn(C(C)C)c5c4n3)nc2)CC1")
1
>>> answer_label("Cc1nc2cc(Nc3nc(Nc4ccc(F)cc4)nc(N4CCCC4)n3)ccc2n1Cc1ccccc1")
1
>>> answer_label("Cc1c(NCC(=O)Nc2nc3ccccc3[nH]2)c(=O)n(-c2ccccc2)n1C")
0
>>> answer_label("O=C(O)CCN1CCN(c2cccc(Cl)c2)CC1")
0
>>> answer_label("c1ccc2cc(Cn3c(-c4ccc5ccccc5c4)[n+](Cc4ccc5ccccc5c4)c4ccccc43)ccc2c1")
1
>>> answer_label("O=C1/C(=C/c2ccc(Cl)cc2)CN(Cc2cn(CCCNc3ccnc4cc(Cl)ccc34)nn2)C/C1=C\\c1ccc(Cl)cc1")
1
>>> answer_label("O=C1C2CC3C(CC2C(=O)[N]1[Sn]([c]1ccccc1)([c]1ccccc1)[c]1ccccc1)C1(Cl)C(Cl)=C(Cl)C3(Cl)C1(Cl)Cl (stereo not given)")
1
>>> answer_label("O=c1oc2ccccc2cc1-c1csc(N=Nc2c(O)[nH]c3ccc(Br)cc23)n1")
0
>>> answer_label("CCCCC(=O)N/N=C/c1cc(I)cc(I)c1O")
0
>>> answer_label("O=C(CC(O)c1ccccc1)Nc1ccccn1 (stereo not given)")
0
>>> answer_label("Cn1c2c(cc(S(=O)(=O)c3ccccc3)c1=O)CCc1c-2cnn1-c1cccc(Cl)c1")
1
>>> answer_label("O=C1CCC(N2C(=O)c3cccc(NCCOCCOCCNC(=O)c4cc5c(o4)C(=O)c4ccccc4C5=O)c3C2=O)C(=O)N1 (stereo not given)")
0
>>> answer_label("NS(=O)(=O)c1ccc(C(=O)N/N=C(\\CS(=O)(=O)c2ccccc2)c2cc3cc(Br)ccc3o2)cc1")
0
>>> answer_label("CCN(C(=O)c1ccc2c3c(cccc13)C=C2)c1ccccc1")
0
>>> answer_label("O=C(c1ccccc1)C(Br)C(Br)c1cccc([N+](=O)[O-])c1 (stereo not given)")
1
>>> answer_label("C[C@]1(CO)C[C@@H](O)C[C@]2(C)[C@@H]1CC[C@@]13C[C@@H]4[C@@H](C[C@H]12)[C@]4(C)C3")
0
>>> answer_label("Cc1nn(-c2ccccc2)c2nc3nc4c(c(N)c3c(-c3ccc(Cl)cc3)c12)CCC4")
0
>>> answer_label("Brc1ccccc1Nc1ccc2nnc(-c3ccncc3)n2n1")
0
>>> answer_label("O=C(N/N=C/c1ccc(OC(F)F)c(OC2CCCC2)c1)c1cnn2c1NC(c1ccccc1)C2 (stereo not given)")
0
>>> answer_label("Cc1c(C)n(CC(O)CNC2CCCCC2C)c2ccccc12 (stereo not given)")
1
>>> answer_label("CC(C)OC1=C(Cl)C(=O)c2ccccc2C1=O")
0
>>> answer_label("CCCCNNC(=O)c1ccc(Br)cc1")
0
>>> answer_label("CCCOC(=O)c1ccc2c(c1)[N+](=O)C(C(=O)c1ccccc1)=C(C(F)(F)F)[N+]2=O")
1
>>> answer_label("O=C(Nc1nc2ccccc2[nH]1)C(=O)Nc1nc2ccccc2[nH]1")
0
>>> answer_label("COC(=O)c1c2c(c(C)[n+]([O-])c1C)C(=O)C(NCc1ccc(O)cc1)=CC2=O")
1
>>> answer_label("CCCCC/C=C\\C/C=C/CCCCCCCCNC(=O)Nc1ccc([N+](=O)[O-])cc1")
0
>>> answer_label("Cn1c(=O)c(S(=O)(=O)c2ccccc2)cc2ccc3c(cnn3-c3ccc(Cl)cc3)c21")
0
>>> answer_label("O=C(C[Si](CC(=O)c1cccc(C(F)(F)F)c1)CC(=O)c1cccc(C(F)(F)F)c1)c1cccc(C(F)(F)F)c1")
0
>>> answer_label("O=C1C(N2CCOCC2)=Cc2cccc3cccc1c23")
0

====

Quick reference for growth among some compounds
# Test system: MDA-MB-435 melanoma
# ASSAY_INFO: NCI-60 one-dose screen, 48 h (100 = growth as untreated, 0 = no growth, -100 = all killed)
# SETTINGS: 10 µM unless noted
About 83,000 compounds went through this panel and 20% of them were active in at least one assay; those are over-represented in the sample as a whole.
ASSAY_READOUT: growth (%)

>>> obs_value("FC(F)(F)c1ccc2c(c1)n1cnnc1c1nncn21")
112
>>> obs_value("CCCOC(=O)c1ccc2c(c1)[N+](=O)C(C(=O)c1ccccc1)=C(C(F)(F)F)[N+]2=O")
-89.5
>>> obs_value("NC(=O)c1cccc(-n2ccc3cc(NC(=O)Nc4ccc(Cl)c(Cl)c4)ccc32)n1")
61
>>> obs_value("O=C1NC(=O)C(CSc2ccccc2)(c2ccccc2)N1 (stereo not drawn)")
112
>>> obs_value("COc1ccc(C2SC(C)C(=O)N2CCc2cccs2)cc1OC (stereo not drawn)")
98.3
>>> obs_value("COc1cc2oc(-c3ccc(O)cc3)cc(=O)c2c(O)c1I")
101
>>> obs_value("CCOC(=O)c1cn2c3c(cc(F)cc3c1=O)C(CC)c1ccccc1C2 (stereo not drawn)")
93.9
>>> obs_value("COc1ccc(-n2ncc3c2ccc2cc(S(=O)(=O)c4ccccc4)c(=O)n(C)c23)cc1")
90.3
>>> obs_value("COC(=O)[C@H]1CCCN1C(=O)[C@H]1CCCN1C(=O)[C@@H](Cc1c[nH]c2ccccc12)NC(=S)Nc1cc(C(F)(F)F)cc(C(F)(F)F)c1")
31.6
>>> obs_value("Cc1ccc(S(=O)(=O)N(c2ccc(Cl)cc2)c2ccc(Br)cc2C(=O)O)cc1")
107
>>> obs_value("COc1ccc(C(=O)C2=CC(=O)C(=O)C2)cc1OC")
106
>>> obs_value("COc1ccc(-c2nn(-c3ccc(NC(=O)c4ccc(Cl)c(Cl)c4)cc3)cc2-c2ccncc2)cc1Cl")
54.3
>>> obs_value("O=C(NCc1cccnc1)c1ccc([N+](=O)[O-])o1")
-19.9
>>> obs_value("O=c1c2c(=NCCN3CCCC3)cc3c(=O)n(CCCN4CCOCC4)c(=O)c4c(-c5ccc(CN6CCCC6)cc5)cc(c(O)n1CCCN1CCOCC1)c2c4-3")
-90.1
>>> obs_value("CCCCNNC(=O)c1ccc(Br)cc1")
36.5
>>> obs_value("COc1ccc(-c2nc3sc(C)nn3c2-c2nc3cc(C)c(C)cc3[nH]2)cc1")
95.6
>>> obs_value("COc1cc(-c2nc(SC(C)C)nc(Nc3ccccc3C)c2C#N)cc(OC)c1OC")
106
>>> obs_value("COC(=O)c1c2c(c(C)[n+]([O-])c1C)C(=O)C=C(NCc1ccc(F)cc1)C2=O")
-93.1
>>> obs_value("CCC(C)[C@H]1O[C@]2(CC[C@@H]1C)C[C@@H]1C[C@@H](C/C=C(\\C)[C@@H](OC3C[C@H](OC)C(O[C@H]4C[C@H](OC)[C@@H](O)[C@H](C)O4)[C@H](C)O3)[C@@H](C)/C=C/C=C3\\CO[C@@H]4[C@H](O)C(C)=C[C@@H](C(=O)O1)[C@]34O)O2 (stereo partly drawn)")
3.2
>>> obs_value("CCCCCCCCCCCCCCNc1nc(CO)ncc1-c1ccc(C(F)(F)F)cc1")
102
>>> obs_value("COc1cc(CNCCCN2C(=O)c3ccc4c5c(ccc(c35)C2=O)C(=O)N(CCCNCc2cc(OC)c(OC)c(OC)c2)C4=O)cc(OC)c1OC")
-71.5
>>> obs_value("Nc1cccc2c(=S)c3ccccc3[nH]c12")
106
>>> obs_value("O=C1c2ccccc2C(=O)c2c(Nc3ccc(CCO)cc3)ccc(O)c21")
88.4
>>> obs_value("Nc1cc2[nH]c(=O)c3ccccc3c2cc1Br")
95.3
>>> obs_value("NC(=O)c1cc(I)ccc1NC(=O)COc1ccccc1")
-56
>>> obs_value("Cc1nc2cc(Nc3nc(Cl)nc(Nc4ccc(F)cc4)n3)ccc2n1Cc1ccccc1")
95.6
>>> obs_value("CN1CCN(c2ccc3nc(-c4ccc5nc(-c6ccc(C(F)(F)F)cc6)[nH]c5c4)[nH]c3c2)CC1")
49.8
>>> obs_value("C=CC[P+](c1ccccc1)(c1ccccc1)c1ccccc1")
32.3
>>> obs_value("Nc1nc(N)c(C=Nc2ccc(Br)cc2)c(Nc2ccc(Br)cc2)n1")
84.7
>>> obs_value("c1ccc(-c2n(Cc3ccc4ccccc4c3)c3ccccc3[n+]2Cc2ccc3ccccc3c2)cc1")
-76.4
>>> obs_value("O=C(N/N=C/c1ccc2c(c1)OCO2)c1cnn2c1NC(c1ccccc1)C2 (stereo not drawn)")
3.07
>>> obs_value("COc1cc(/C=C/C(=O)C(=Cc2ccc(F)c(F)c2)C(=O)/C=C/c2ccc(O)c(OC)c2)ccc1O")
0.136
>>> obs_value("COc1ccc(C(=O)COc2cccc(/C=C3\\CSc4ccc(C)cc4C3=O)c2)cc1")
69.5
>>> obs_value("COc1cc2cc(Oc3ccc(NC(=O)Nc4cccc(C(F)(F)F)c4)cc3)c(C)nc2cc1OCCN1CCCCC1")
-92.8
>>> obs_value("O=C1CCC(N2C(=O)c3cccc(NCCOCCOCCNC(=O)c4cc5c(o4)C(=O)c4ccccc4C5=O)c3C2=O)C(=O)N1 (stereo not drawn)")
-92.1
>>> obs_value("COc1ccc(OC)c2ncccc12")
105
>>> obs_value("CCN(CC)c1ccc2c(c1)OS(=O)(=O)N=C2")
101
>>> obs_value("O=C1C(N2CCOCC2)=Cc2cccc3cccc1c23")
102

The measured values listed here are drawn from PubChem BioAssay (NCI).
